- Test system: MDA-MB-231
- experimentDescription: Antiproliferative activity against human MDA-MB-231 cells assessed as inhibition of cell growth measured after 72 hrs by MTT assay
- Type: functional, cell-based
- experimentalSetup: MDA-MB-231, 72 h
pIC50: −log10 of the molar value.
measuredAttribute: pIC50

CC(C)(C)c1cc2c(O)c(c1)Cc1cc(C(C)(C)C)cc(c1OCC(=O)NCCO)Cc1cc(C(C)(C)C)cc(c1O)Cc1cc(C(C)(C)C)cc(c1OCC(=O)NCCO)C2	5.34

[1] CC(C)(C)c1cc2c(O)c(c1)Cc1cc(C(C)(C)C)cc(c1OCCCCCC(=O)NCCCO)Cc1cc(C(C)(C)C)cc(c1O)Cc1cc(C(C)(C)C)cc(c1OCCCCCC(=O)NCCCO)C2
[2] CC(C)(C)c1cc2c(O)c(c1)Cc1cc(C(C)(C)C)cc(c1OC/C=C/C(=O)NCCO)Cc1cc(C(C)(C)C)cc(c1O)Cc1cc(C(C)(C)C)cc(c1OC/C=C/C(=O)NCCO)C2
Query string: Compare 1 and 2 by numeric pIC50 and name the larger one. Give the label of your selection.
Result string: 2
